Let's go through some recorded MIC values for Staphylococcus aureus together.
endpoint.name: MIC

compound="CC1=C(C(=O)O)N2C(=O)C(NC(=O)C(N)c3ccc(N=C4SCCS4)cc3)C2SC1 (stereo not shown)" test_system="Staphylococcus aureus" data_value="3.1 µg/mL"
compound="CC(=O)OCC1=C(C(=O)O)N2C(=O)C(NC(=O)CN=C3SCCS3)C2SC1 (stereo not shown)" test_system="Staphylococcus aureus" data_value="0.4 µg/mL"
compound="CC1=C(C(=O)O)N2C(=O)C(NC(=O)C(N=C3SCCS3)c3ccccc3)C2SC1 (stereo not shown)" test_system="Staphylococcus aureus" data_value="25 µg/mL"
compound="CC(=O)OCC1=C(C(=O)O)N2C(=O)C(NC(=O)C(O)c3ccc(N=C4SCCS4)cc3)C2SC1 (stereo not shown)" test_system="Staphylococcus aureus" data_value="0.4 µg/mL"
